MIC reference
Test system: S.aureus SK 23390
Assay name: In vitro antibacterial activity (MIC)
Assay type: cell-based
Test parameters: Staphylococcus aureus, SK23390; S.aureus SK 23390, in vitro; read-out: MIC

Molecule	MIC
COC(=O)COc1ccc([C@@H](N)C(=O)NC2C(=O)N3C(C(=O)O)=C(CSc4nnnn4C)CSC23)cc1 (some centres unmarked) [Compound No. 26436]	6.3 µg/mL
Cc1nnc(SCC2=C(C(=O)O)N3C(=O)C(NC(=O)[C@H](N)c4ccc(SCC(N)=O)cc4)C3SC2)s1 (some centres unmarked) [Compound No. 86526]	3.1 µg/mL

[Q] # get_value(readout='MIC', item= Cc1nnc(SCC2=C(C(=O)O)N3C(=O)C(NC(=O)[C@H](N)c4ccc(OCC(=O)O)cc4)C3SC2)s1 (some centres unmarked) [Compound No. 59216] )
[A] 25 µg/mL

[Q] # get_value(readout='MIC', item= Cc1nnc(SCC2=C(C(=O)O)N3C(=O)C(NC(=O)[C@H](N)c4ccc(SCC(=O)O)cc4)C3SC2)s1 (some centres unmarked) [Compound No. 03616] )
[A] 6.3 µg/mL

[Q] # get_value(readout='MIC', item= Cc1nnc(SCC2=C(C(=O)O)N3C(=O)C(NC(=O)C(N)c4ccc(OCC(=O)O)cc4)C3SC2)s1 (centres unmarked) [*59216] )
[A] 100 to 200 µg/mL

[Q] # get_value(readout='MIC', item= COC(=O)COc1ccc([C@@H](N)C(=O)NC2C(=O)N3C(C(=O)O)=C(C)CSC23)cc1 (some centres unmarked) [Compound No. 07826] )
[A] 6.3 µg/mL

[Q] # get_value(readout='MIC', item= Cn1nnnc1SCC1=C(C(=O)O)N2C(=O)C(NC(=O)[C@H](N)c3ccc(OCC(=O)O)cc3)C2SC1 (some centres unmarked) [Compound No. 42526] )
[A] 25 µg/mL

[Q] # get_value(readout='MIC', item= Cc1nnc(SCC2=C(C(=O)O)N3C(=O)C(NC(=O)[C@H](N)c4ccc(NCC(=O)O)cc4)C3SC2)s1 (some centres unmarked) [Compound No. 48536] )
[A] 12.5 µg/mL

[Q] # get_value(readout='MIC', item= N[C@@H](C(=O)NC1C(=O)N2C(C(=O)O)=C(CSc3c[nH]nn3)CSC12)c1ccc(OCC(=O)O)cc1 (some centres unmarked) [Compound No. 03326] )
[A] 100 µg/mL

[Q] # get_value(readout='MIC', item= COC(=O)COc1ccc([C@@H](N)C(=O)NC2C(=O)N3C(C(=O)O)=C(CSc4c[nH]nn4)CSC23)cc1 (some centres unmarked) [Compound No. 19736] )
[A] 12.5 µg/mL

[Q] # get_value(readout='MIC', item= N[C@@H](C(=O)NC1C(=O)N2C(C(=O)O)=C(CSc3c[nH]nn3)CSC12)c1ccc(SCC(=O)O)cc1 (some centres unmarked) [Compound No. 04726] )
[A] 12.5 µg/mL

====

System: Kleb. pneumo. SK 4200
Assay name: In vitro antibacterial activity (MIC)
Assay type: cell-based
Test parameters: Kleb. pneumo. SK 4200, in vitro; read-out: MIC
Metric name: MIC (µg/mL)
Numeric answer only, unit µg/mL assumed.

Here is how some compounds turned out for MIC.
Compound	Result unit	Reading
COC(=O)COc1ccc([C@@H](N)C(=O)NC2C(=O)N3C(C(=O)O)=C(C)CSC23)cc1 (stereo partly shown)	µg/mL	100
Cc1nnc(SCC2=C(C(=O)O)N3C(=O)C(NC(=O)[C@H](N)c4ccc(NCC(=O)O)cc4)C3SC2)s1 (stereo partly shown)	µg/mL	1.6

Consider now this further compound.
[Q] # get_value(readout='MIC', item= Cn1nnnc1SCC1=C(C(=O)O)N2C(=O)C(NC(=O)[C@H](N)c3ccc(NCC(=O)O)cc3)C2SC1 (stereo partly shown) )
[A] 0.8
